target: UniProt:P41143; assay: In vitro cAMP activity at DOP (Table 10); type: cell-based; conditions: cAMP inhibition, four-parameter regression
Sequence (P41143 whole entry): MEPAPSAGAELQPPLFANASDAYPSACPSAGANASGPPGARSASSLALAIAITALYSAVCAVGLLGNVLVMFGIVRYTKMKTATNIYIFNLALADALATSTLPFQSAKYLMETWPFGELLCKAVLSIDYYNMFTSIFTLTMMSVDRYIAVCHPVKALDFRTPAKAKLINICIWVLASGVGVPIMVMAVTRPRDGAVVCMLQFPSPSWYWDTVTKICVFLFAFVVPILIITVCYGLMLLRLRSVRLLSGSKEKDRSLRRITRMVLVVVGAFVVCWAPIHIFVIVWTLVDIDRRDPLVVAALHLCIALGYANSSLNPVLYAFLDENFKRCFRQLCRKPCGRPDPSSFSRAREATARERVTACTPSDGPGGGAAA
*1 amine or outer side, *2 acyl side, *3 side chain or, on linkers, in order; H or OH if unused. Where a SMILES comes first, the peptide text is derived from it. Bridges are numbered along the chain shown (N, C = ends). [ ]: non-standard residue; d: D form. ξ: configuration not given here. NHCH2CMe2S = CC(C)(CN[*:1])S[*:2]; ξC = NC(CS)C(=O)O
endpoint: EC50

As a guide, the following entries are already answered.
compound	EC50
CC1(C)CNC(=O)C[C@H](NC(=O)CNC(=O)[C@@H](N)Cc2ccc(O)cc2)C(=O)N[C@@H](Cc2ccccc2)C(=O)NC(C(=O)N[C@@H](CCCNC(=N)N)C(=O)N[C@@H](CCCNC(=N)N)C(N)=O)CSS1 (stereo partly drawn) [CP4, c(Tyr-Gly-Asp-Phe-SSa-Arg-Arg)] (H-YGDF[ξC]RR-NH2; linker 3-5 via NHCH2CMe2S; N-terminus assumed)	> 10000 nM
CC1(C)CNC(=O)C[C@@H](C(=O)N[C@@H](CCCNC(=N)N)C(=O)N[C@@H](CCCNC(=N)N)C(N)=O)NC(=O)[C@H](Cc2ccccc2)NC(=O)CNC(=O)C(NC(=O)[C@@H](N)Cc2ccc(O)cc2)CSS1 (stereo partly drawn) [CP1, c(Tyr-SSa-Gly-Phe-L-Asp-Arg-Arg)]	> 10000 nM

Task: Bench note: what EC50 did CC1(C)CNC(=O)C[C@H](C(=O)N[C@@H](CCCNC(=N)N)C(=O)N[C@@H](CCCNC(=N)N)C(N)=O)NC(=O)[C@H](Cc2ccccc2)NC(=O)CNC(=O)[C@@H](NC(=O)[C@@H](N)Cc2ccc(O)cc2)CSS1 [DP-7-11, c(Tyr-SSa-Gly-Phe-D(Asp)-Arg-Arg)] show?
Output: > 10000 nM

The reported measurements were obtained from patent US20220089646A1.
